// reported IC50 per item
Experiment: Inhibition of biotin-tagged KRAS G12D mutant (unknown origin) to recombinant His-tagged SOS1 (unknown origin) protein-protein interaction incubated for 120 mins by AlphaLISA method
Design: species or system Homo sapiens
Positions of bridges follow the written chain, without caps; N, C: chain ends. Non-standard residues stand in square brackets, D forms with d. Residues, ends and D or L forms follow the SMILES beside them. *: point of attachment. hPhe(3-Cl-4-CF3) = N[C@@H](CCc1ccc(C(F)(F)F)c(Cl)c1)C(=O)O; NMePhe(4-Cl) = CN[C@@H](Cc1ccc(Cl)cc1)C(=O)O; Phe(3-Cl) = N[C@@H](Cc1cccc(Cl)c1)C(=O)O; NMeGly(cBu) = CN[C@H](C(=O)O)C1CCC1; NMeCha = CN[C@@H](CC1CCCCC1)C(=O)O; NMeF = CN[C@@H](Cc1ccccc1)C(=O)O; NMeD = CN[C@@H](CC(=O)O)C(=O)O; NMeL = CN[C@@H](CC(C)C)C(=O)O; NMeNva = CCC[C@H](NC)C(=O)O; NMeV = CN[C@H](C(=O)O)C(C)C; NMeA = CN[C@@H](C)C(=O)O; Piperidide = C1CCN(*)CC1; Pyrrolidide = C1CCN(*)C1; Ac5c = NC1(C(=O)O)CCCC1; Aze = O=C(O)[C@@H]1CCN1; Sar = CNCC(=O)O
Record the value in nM, omitting the unit from your answer.

Illustrative cases are given below, each with its answer.
1) CC[C@H](C)[C@@H]1NC(=O)[C@H](CC(C)C)N(C)C(=O)C[C@@H](C(=O)N2CCCCC2)N(C)C(=O)[C@H](C(C)C)N(C)C(=O)C2(CCCC2)NC(=O)[C@@H]2CCCN2C(=O)[C@H](CCc2ccc(C(F)(F)F)c(Cl)c2)NC(=O)CN(C)C(=O)[C@H](CC2CCCCC2)N(C)C(=O)CN(C)C(=O)CN(C)C1=O ([NMeL]I[Sar][Sar][NMeCha][Sar][hPhe(3-Cl-4-CF3)]P[Ac5c][NMeV][NMeD]-Piperidide; lactam N-11)	6
2) CC[C@H](C)[C@@H]1NC(=O)[C@H](C2CCC2)N(C)C(=O)C[C@@H](C(=O)N2CCCCC2)N(C)C(=O)[C@H](C(C)C)N(C)C(=O)C2(CCCC2)NC(=O)[C@@H]2CCCN2C(=O)[C@H](CCc2ccc(C(F)(F)F)c(Cl)c2)NC(=O)CN(C)C(=O)[C@H](CC2CCCCC2)N(C)C(=O)CN(C)C(=O)CN(C)C1=O ([NMeGly(cBu)]I[Sar][Sar][NMeCha][Sar][hPhe(3-Cl-4-CF3)]P[Ac5c][NMeV][NMeD]-Piperidide; lactam N-11)	2.8
3) CC[C@H](C)[C@@H]1NC(=O)[C@H](C)N(C)C(=O)C[C@@H](C(=O)N2CCCC2)NC(=O)[C@H](C(C)C)N(C)C(=O)[C@H](Cc2ccccc2)N(C)C(=O)[C@H](Cc2c[nH]c3ccccc23)NC(=O)[C@H](Cc2cccc(Cl)c2)NC(=O)CN(C)C(=O)[C@H](Cc2ccc(Cl)cc2)N(C)C(=O)CN(C)C(=O)CN(C)C1=O ([NMeA]I[Sar][Sar][NMePhe(4-Cl)][Sar][Phe(3-Cl)]W[NMeF][NMeV]D-Pyrrolidide; lactam N-11)	54

Okay, now this compound:
GET /value?item= CCC[C@H]1C(=O)N(C)[C@H](C(=O)N2CCCCC2)CC(=O)N(C)[C@@H](CC(C)C)C(=O)N[C@@H]([C@@H](C)CC)C(=O)N(C)[C@@H](C)C(=O)N2CC[C@H]2C(=O)N(C)[C@@H](CC2CCCCC2)C(=O)N(C)CC(=O)N[C@@H](CCc2ccc(C(F)(F)F)c(Cl)c2)C(=O)N2CCC[C@H]2C(=O)NC2(CCCC2)C(=O)N1C ([NMeL]I[NMeA][Aze][NMeCha][Sar][hPhe(3-Cl-4-CF3)]P[Ac5c][NMeNva][NMeD]-Piperidide; lactam N-11) &field=IC50 returns 5.7
